Where these numbers come from: paper PMC10251482

# assayRemarks: In vitro cytotoxicity against murine macrophages (alamarBlue)
# Format: cell-based
# condition: mouse, J774A.1 macrophage cell line (ATCC TIB-67), alamarBlue; read-out: Murine macrophages J774.A1 CC50
assayReadout: CC50 (µM)
Unit µM implied. Number only.

Supply CC50 value. Item: CCCCCCCCCCCCCCCCOP(=O)([O-])OCC[N+](C)(C)C [Miltefosine, miltefosine, reference compound]
128

---

# System: murine macrophage cell line J774A.1 (ATCC TIB-67)
# assayRemarks: In vitro cytotoxicity against murine macrophages (alamarBlue)
# Assay type: cell-based
# condition: mouse
assayReadout: CC50

Determine its reported CC50: COC(=O)/C=C/OC(C#N)c1ccc(C)cc1 (stereo not shown)
> 865 µM
